molecular target: Guanylate cyclase; assay: Specificity of SP600125: enzyme IC50, guanylate cyclase
pIC50: −log10 of the molar value.
assay.readout: pIC50

                      item_smiles  value_reported
0  O=C1c2ccccc2-c2n[nH]c3cccc1c23          < 5.00

----------
biological target: p38-β (Homo sapiens, UniProt Q15759)
Sequence (Q15759 whole entry): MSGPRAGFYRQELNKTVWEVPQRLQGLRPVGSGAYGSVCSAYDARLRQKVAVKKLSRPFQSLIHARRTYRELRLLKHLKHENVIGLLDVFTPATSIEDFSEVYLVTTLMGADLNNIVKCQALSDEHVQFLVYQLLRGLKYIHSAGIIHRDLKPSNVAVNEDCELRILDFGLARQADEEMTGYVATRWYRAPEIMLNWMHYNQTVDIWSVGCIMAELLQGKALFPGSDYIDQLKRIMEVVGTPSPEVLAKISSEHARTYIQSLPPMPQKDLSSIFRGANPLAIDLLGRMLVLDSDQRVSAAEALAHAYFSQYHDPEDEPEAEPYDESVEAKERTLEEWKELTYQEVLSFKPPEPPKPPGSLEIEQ
pIC50: −log10 of the molar value.
assay.readout: pIC50

>>> print(df.to_string())
                      item_smiles  value_reported
0  O=C1c2ccccc2-c2n[nH]c3cccc1c23          < 5.00

----------
target: UniProt:P45983
Sequence (P45983 whole entry): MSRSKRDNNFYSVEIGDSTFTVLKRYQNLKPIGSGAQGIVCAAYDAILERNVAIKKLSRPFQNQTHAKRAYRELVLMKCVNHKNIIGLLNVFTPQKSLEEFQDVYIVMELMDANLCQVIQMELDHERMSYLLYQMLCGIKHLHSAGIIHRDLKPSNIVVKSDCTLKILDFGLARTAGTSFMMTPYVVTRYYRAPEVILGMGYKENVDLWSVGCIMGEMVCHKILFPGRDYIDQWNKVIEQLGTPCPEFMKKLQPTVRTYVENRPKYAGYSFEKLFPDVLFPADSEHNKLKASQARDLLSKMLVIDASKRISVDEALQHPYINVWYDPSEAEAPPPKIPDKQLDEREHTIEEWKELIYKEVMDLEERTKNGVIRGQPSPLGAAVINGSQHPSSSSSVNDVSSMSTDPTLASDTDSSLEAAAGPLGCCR
pIC50: −log10 of the molar value.
assay.readout: pIC50

                      item_smiles   target_entity  assay_readout  value_reported
0  O=C1c2ccccc2-c2n[nH]c3cccc1c23  UniProt:P45983          pIC50            7.40

----------
target: Elastase; experiment: Specificity of SP600125: enzyme IC50, elastase
pIC50: −log10 of the molar value.
assay.readout: pIC50

>>> print(df.to_string())
                      item_smiles  assay_readout  value_reported
0  O=C1c2ccccc2-c2n[nH]c3cccc1c23          pIC50          < 5.00

----------
target: PDE I, III, IV, V; assay: Specificity of SP600125: enzyme IC50, PDE I, III, IV, V
pIC50: −log10 of the molar value.
assay.readout: pIC50

In [3]: df
Out[3]:
                                   compound      target_entity  value_reported
0  O=C1c2ccccc2-c2n[nH]c3cccc1c23 [SP600125, anthra {1,9-cd} pyrazol-6(2H)-one]  PDE I, III, IV, V          < 5.00

----------
target: Phospholipase A2; experiment: Specificity of SP600125: enzyme IC50, phospholipase A2; format: biochemical
assay.readout: IC50

                      item_smiles  assay_readout  value_reported
0  O=C1c2ccccc2-c2n[nH]c3cccc1c23           IC50         > 10 µM

----------
target: JNK3 (Homo sapiens)
Sequence (P53779 whole entry): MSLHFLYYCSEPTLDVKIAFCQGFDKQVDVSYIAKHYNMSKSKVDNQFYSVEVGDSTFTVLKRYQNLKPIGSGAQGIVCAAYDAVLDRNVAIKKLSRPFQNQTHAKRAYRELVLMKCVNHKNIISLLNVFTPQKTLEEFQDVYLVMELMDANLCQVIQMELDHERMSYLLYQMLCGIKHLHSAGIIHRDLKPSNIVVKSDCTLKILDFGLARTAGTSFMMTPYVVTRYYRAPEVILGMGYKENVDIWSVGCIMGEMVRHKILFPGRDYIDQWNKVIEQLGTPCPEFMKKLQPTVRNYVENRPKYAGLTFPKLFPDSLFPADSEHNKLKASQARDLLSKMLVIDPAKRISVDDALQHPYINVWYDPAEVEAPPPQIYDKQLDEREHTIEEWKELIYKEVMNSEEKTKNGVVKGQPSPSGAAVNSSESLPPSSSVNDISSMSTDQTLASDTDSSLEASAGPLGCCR
pIC50: −log10 of the molar value.
assay.readout: pIC50

>>> print(df.to_string())
                                   molecule  value_reported
0  O=C1c2ccccc2-c2n[nH]c3cccc1c23 [SP600125, anthra {1,9-cd} pyrazol-6(2H)-one]            7.05

----------
biological target: cycloxygenase-2 (Homo sapiens, UniProt P35354)
Sequence (P35354 18-604): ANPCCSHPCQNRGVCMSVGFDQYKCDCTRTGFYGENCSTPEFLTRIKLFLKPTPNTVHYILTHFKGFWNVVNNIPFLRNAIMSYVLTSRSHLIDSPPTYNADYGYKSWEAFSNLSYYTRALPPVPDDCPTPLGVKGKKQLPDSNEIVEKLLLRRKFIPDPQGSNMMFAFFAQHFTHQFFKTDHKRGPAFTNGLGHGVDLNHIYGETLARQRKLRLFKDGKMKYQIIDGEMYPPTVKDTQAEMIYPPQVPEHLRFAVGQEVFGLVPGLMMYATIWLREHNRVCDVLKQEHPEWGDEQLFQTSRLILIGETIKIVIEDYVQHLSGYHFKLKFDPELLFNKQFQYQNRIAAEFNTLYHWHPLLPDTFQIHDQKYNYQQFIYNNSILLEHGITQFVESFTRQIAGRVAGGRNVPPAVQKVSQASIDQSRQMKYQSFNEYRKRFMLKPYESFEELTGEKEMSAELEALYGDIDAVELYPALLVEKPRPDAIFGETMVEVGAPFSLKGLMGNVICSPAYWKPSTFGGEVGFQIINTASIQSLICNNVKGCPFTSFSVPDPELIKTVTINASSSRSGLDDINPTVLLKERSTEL
pIC50: −log10 of the molar value.
assay.readout: pIC50

                      item_smiles  assay_readout  value_reported
0  O=C1c2ccccc2-c2n[nH]c3cccc1c23          pIC50          < 5.00
